# TARGET_ENTITY: UniProt Q02928
# ASSAY_TEXT: Inhibition test against 20-HETE producing enzyme CYP4A11 (luciferine derivative, luminescence)
# Assay type: biochemical
# EXPERIMENTAL_CONDITIONS: human CYP4A11, luciferine derivative, luminescence
RECORDED_ENDPOINT: IC50 (nM)
Could you give me the number in nM? Just the number is fine.

Worked examples follow.
O=C(N[C@H]1CC[C@H](C(=O)O)CC1)c1cccc(COc2ccc(-c3ccn[nH]3)nc2)c1 [Example 45-20]    410
CC(=O)N1CCC(CCCCCCCCOc2ccc(-c3ccn[nH]3)nc2)(C(=O)O)C1 (stereo not shown) [Example 72-9]    230
O=C(O)C1CCc2c(COc3ccc(-c4ccn[nH]4)nc3)cccc2O1 (stereo not shown) [Example 71-11]    22

Field: next compound
Q: Returns the measured IC50 for the input compound. Input: CO[C@H](C)CNC(=O)CCc1cccc(COc2ccc(-c3ccn[nH]3)nc2)c1 [Example 43-12]
Result: 76

----------
# TARGET_ENTITY: human CYP4F2 (Homo sapiens (Human), UniProt P78329)
# Sequence (P78329 5-520): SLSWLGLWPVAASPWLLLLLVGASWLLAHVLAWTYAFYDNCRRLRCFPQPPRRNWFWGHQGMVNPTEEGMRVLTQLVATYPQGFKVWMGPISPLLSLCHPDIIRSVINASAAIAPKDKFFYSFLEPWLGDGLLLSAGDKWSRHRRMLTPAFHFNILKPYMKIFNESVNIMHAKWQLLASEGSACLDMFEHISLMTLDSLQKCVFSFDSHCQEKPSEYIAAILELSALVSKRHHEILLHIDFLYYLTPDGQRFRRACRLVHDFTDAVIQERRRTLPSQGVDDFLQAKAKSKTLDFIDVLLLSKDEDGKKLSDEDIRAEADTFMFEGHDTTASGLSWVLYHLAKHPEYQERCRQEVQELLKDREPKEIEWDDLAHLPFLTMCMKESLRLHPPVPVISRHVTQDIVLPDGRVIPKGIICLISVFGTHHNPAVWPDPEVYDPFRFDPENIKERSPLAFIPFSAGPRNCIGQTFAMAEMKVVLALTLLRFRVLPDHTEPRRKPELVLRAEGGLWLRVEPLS
# ASSAY_TEXT: Inhibition test against 20-HETE producing enzyme CYP4F2 (luciferine derivative, luminescence)
# Format: biochemical
# EXPERIMENTAL_CONDITIONS: human CYP4F2, luciferine derivative, luminescence
RECORDED_ENDPOINT: log10(IC50) (log10 of the value in µM)
Give log10 of IC50, with IC50 taken in µM.

CC(C)(Oc1cc(CCOc2ccc(-c3ccn[nH]3)nc2)ccn1)C(=O)O [Example 71-34]    1.56
O=C(O)C1CC1c1cc(F)cc(CCOc2ccc(-c3ccn[nH]3)nc2)c1 (single isomer, unassigned) [Example 74-11]    0.08
O=C(O)[C@@H]1C[C@@H]1c1ccc(CCOc2ccc(-c3ccn[nH]3)nc2)cc1 [Example 70-10-1]    -0.92
CO[C@H](C)CNC(=O)CCc1cccc(COc2ccc(-c3ccn[nH]3)nc2)c1 [Example 43-12]    -1.40
C[C@@H](O)CNC(=O)CCc1cccc(COc2ccc(-c3ccn[nH]3)nc2)c1 [Example 43-6]    -1.04
O=C(O)C[C@@H]1CCN(C(=O)c2cccc(COc3ccc(-c4ccn[nH]4)nc3)c2)C1 [Example 45-40]    0.15
O=C(CCc1cccc(COc2ccc(-c3ccn[nH]3)nc2)c1)NC1COC1 [Example 43-4]    -1.35

Field: next molecule
Q: Returns the measured log10(IC50) for the input molecule. Input: CC(C)(Oc1ccc(CCCOc2ccc(-c3ccn[nH]3)nc2)cn1)C(=O)O [Example 71-38]
Result: 0.28

----------
Quick reference: IC50 of the listed items.
# TARGET_ENTITY: human CYP4A11 (Homo sapiens (Human), UniProt Q02928)
# Sequence (Q02928 5-519): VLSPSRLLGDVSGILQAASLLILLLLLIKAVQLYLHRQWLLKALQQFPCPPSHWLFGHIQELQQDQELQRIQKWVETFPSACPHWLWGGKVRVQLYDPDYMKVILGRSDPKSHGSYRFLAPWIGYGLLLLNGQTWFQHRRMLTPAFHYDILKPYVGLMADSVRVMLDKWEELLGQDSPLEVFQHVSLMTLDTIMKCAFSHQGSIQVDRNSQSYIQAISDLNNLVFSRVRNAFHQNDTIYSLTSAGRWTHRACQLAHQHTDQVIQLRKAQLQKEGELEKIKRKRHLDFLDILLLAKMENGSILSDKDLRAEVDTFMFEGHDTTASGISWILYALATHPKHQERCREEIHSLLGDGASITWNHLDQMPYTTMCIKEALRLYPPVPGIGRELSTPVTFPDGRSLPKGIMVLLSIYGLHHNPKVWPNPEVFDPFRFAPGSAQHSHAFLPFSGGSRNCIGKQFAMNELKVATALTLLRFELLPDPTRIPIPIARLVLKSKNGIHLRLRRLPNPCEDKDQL
# ASSAY_TEXT: Inhibition test against 20-HETE producing enzyme CYP4A11 (luciferine derivative, luminescence)
# Format: biochemical
# EXPERIMENTAL_CONDITIONS: E. coli membrane fraction expressing human CYP4A11, 60 μM luciferine derivative, room temperature 60 minutes
Could you give me the number in nM? Just the number is fine.

Worked examples follow.
O=C(O)CCCCCCCCOc1ccc(-c2ccn[nH]2)nc1    54
O=C(O)C12CC(CCCCCCOc3ccc(-c4ccn[nH]4)nc3)(C1)C2    61
O=C(CCCC1(C(=O)O)CCCC1)N1CCC(COc2ccc(-c3ccn[nH]3)nc2)CC1    830

Q: Returns the measured IC50 for the input compound. Input: O=C(O)[C@H]1CC[C@@H](COc2ccc(-c3ccn[nH]3)nc2)CC1
Result: 170

Q: Returns the measured IC50 for the input compound. Input: O=C(O)c1cccc(COc2ccc(-c3ccn[nH]3)nc2)c1
Result: 42

Q: Returns the measured IC50 for the input compound. Input: CC(=O)N1CCC(CCCCCCOc2ccc(-c3ccn[nH]3)nc2)(C(=O)O)C1 (centres unmarked)
Result: 810

Q: Returns the measured IC50 for the input compound. Input: O=C(O)CCS(=O)(=O)c1cccc(COc2ccc(-c3ccn[nH]3)nc2)c1
Result: 30

Q: Returns the measured IC50 for the input compound. Input: O=C(O)C1CCCC(CCCOc2ccc(-c3ccn[nH]3)nc2)C1 (centres unmarked)
Result: 30
